# ASSAY SETUP: in 1,2-dichloroethane, 308.55 K
RECORDED METRIC: solubility (mole fraction)

Ask: Field request: solubility (mole fraction) | item: c1ccc(-c2cc3ccccc3[nH]2)cc1
Result: 0.0285

###

# ASSAY SETUP: in methanol, 323.25 K
RECORDED METRIC: solubility (mole fraction)

Ask: Field request: solubility (mole fraction) | item: c1ccc(-c2cc3ccccc3[nH]2)cc1
Result: 0.0119

###

# ASSAY SETUP: in isopropanol, 338.55 K
RECORDED METRIC: solubility (mole fraction)
Answer field: number only, no words.

Ask: Field request: solubility (mole fraction) | item: c1ccc(-c2cc3ccccc3[nH]2)cc1
Result: 0.0233

###

# ASSAY SETUP: in acetone, 329.35 K
RECORDED METRIC: solubility (mole fraction)
Answer field: number only, no words.

Ask: Field request: solubility (mole fraction) | item: c1ccc(-c2cc3ccccc3[nH]2)cc1
Result: 0.172

###

# ASSAY SETUP: in acetonitrile, 313.65 K
RECORDED METRIC: solubility (mole fraction)
Answer field: number only, no words.

Ask: Field request: solubility (mole fraction) | item: c1ccc(-c2cc3ccccc3[nH]2)cc1
Result: 0.0328

###

# ASSAY SETUP: in n-butanol, 318.25 K
RECORDED METRIC: solubility (mole fraction)
Answer field: number only, no words.

Ask: Field request: solubility (mole fraction) | item: c1ccc(-c2cc3ccccc3[nH]2)cc1
Result: 0.0212

###

# ASSAY SETUP: in acetonitrile, 334.15 K
RECORDED METRIC: solubility (mole fraction)

Ask: Field request: solubility (mole fraction) | item: c1ccc(-c2cc3ccccc3[nH]2)cc1
Result: 0.0604

###

# ASSAY SETUP: in methanol, 329.05 K
RECORDED METRIC: solubility (mole fraction)
Answer field: number only, no words.

Ask: Field request: solubility (mole fraction) | item: c1ccc(-c2cc3ccccc3[nH]2)cc1
Result: 0.0136

###

# ASSAY SETUP: in THF, 299.15 K
RECORDED METRIC: solubility (mole fraction)

Ask: Field request: solubility (mole fraction) | item: c1ccc(-c2cc3ccccc3[nH]2)cc1
Result: 0.203

###

# ASSAY SETUP: in n-butanol, 334.05 K
RECORDED METRIC: solubility (mole fraction)

Ask: Field request: solubility (mole fraction) | item: c1ccc(-c2cc3ccccc3[nH]2)cc1
Result: 0.0311

###

# ASSAY SETUP: in 1,4-dioxane, 334.15 K
RECORDED METRIC: solubility (mole fraction)
Answer field: number only, no words.

Ask: Field request: solubility (mole fraction) | item: c1ccc(-c2cc3ccccc3[nH]2)cc1
Result: 0.239

###

# ASSAY SETUP: in sec-butanol, 329.05 K
RECORDED METRIC: solubility (mole fraction)
Answer field: number only, no words.

Ask: Field request: solubility (mole fraction) | item: c1ccc(-c2cc3ccccc3[nH]2)cc1
Result: 0.0271

###

# ASSAY SETUP: in isopropanol, 296.95 K
RECORDED METRIC: solubility (mole fraction)

Ask: Field request: solubility (mole fraction) | item: c1ccc(-c2cc3ccccc3[nH]2)cc1
Result: 0.00786

###

# ASSAY SETUP: in 1,2-dichloroethane, 318.25 K
RECORDED METRIC: solubility (mole fraction)
Answer field: number only, no words.

Ask: Field request: solubility (mole fraction) | item: c1ccc(-c2cc3ccccc3[nH]2)cc1
Result: 0.0373

Measured values drawn from BigSolDB 2.1 for this set.
